experiment: Acute (single administration) toxicity test in rats; format: in vivo, SD rats; details: in vivo, ip, intraperitoneal, Rat M, medium 5% gum arabic
EXPERIMENTAL READOUT: LD50

Q: Which LD50 reading was recorded for the compound CC(C)=CCC/C(C)=C/CC/C(C)=C/CC/C(C)=C/CC1=C(C)C(=O)c2ccccc2C1=O ?
A: > 5000 mg/kg

* * *

assay: Acute (single administration) toxicity test in rats; format: in vivo, SD rats; conditions: in vivo, oral, Rat M, medium 5% gum arabic
EXPERIMENTAL READOUT: LD50

Q: Which LD50 reading was recorded for the compound CC(C)=CCC/C(C)=C/CC/C(C)=C/CC/C(C)=C/CC1=C(C)C(=O)c2ccccc2C1=O ?
A: > 5000 mg/kg
